biological target: Cannabinoid receptor 2 (Rattus norvegicus)
Sequence (Q9QZN9 whole entry): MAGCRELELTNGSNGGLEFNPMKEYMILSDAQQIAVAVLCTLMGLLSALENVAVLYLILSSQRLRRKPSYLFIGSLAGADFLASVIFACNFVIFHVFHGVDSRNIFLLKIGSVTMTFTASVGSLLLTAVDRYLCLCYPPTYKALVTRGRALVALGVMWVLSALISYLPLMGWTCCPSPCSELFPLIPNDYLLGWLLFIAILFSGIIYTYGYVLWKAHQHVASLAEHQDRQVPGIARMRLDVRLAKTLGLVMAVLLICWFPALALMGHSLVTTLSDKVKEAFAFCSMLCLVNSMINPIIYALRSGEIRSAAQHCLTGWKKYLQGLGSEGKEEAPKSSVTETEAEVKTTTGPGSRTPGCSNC
Overview of reported Ki across a group of compounds:
A number alone suffices; assume nM.

Answered cases to consult:
> print(dat)
                                   compound  reported.result
1  CCCCCn1cc(C(=O)NC23CC4CC(CC(C4)C2)C3)c(=O)n2nc(-c3ccco3)cc12             5.14
2  CCCCCn1cc(C(=O)NC2CCCCCC2)c(=O)n2nc(C(C)(C)C)cc12             7.52
3  CCCCCn1cc(C(=O)NC2CCC(C)CC2)c(=O)n2nc(C)cc12 (configuration not stated)              120
4  CCCCCn1cc(C(=O)NC2CCCCCC2)c(=O)n2nc(-c3ccccc3Cl)cc12             12.3
5  CCCCCn1cc(C(=O)NC23CC4CC(CC(C4)C2)C3)c(=O)n2nc(-c3ccc(Cl)cc3Cl)cc12               35

Q. Form field: Ki recorded for `CCCCCn1cc(C(=O)NC23CC4CC(CC(C4)C2)C3)c(=O)n2nc(-c3ccccc3)cc12` with Cannabinoid receptor 2 (Rattus norvegicus) (enter value)
A. 2.74

Q. Which measured Ki belongs to `CCCCCn1cc(C(=O)NC2CCCCC2)c(=O)n2nc(-c3ccccc3Cl)cc12` , tested on Cannabinoid receptor 2 (Rattus norvegicus)?
A. 52
